Biological target: GDP-bound KRAS wild-type protein (Homo sapiens)
Sequence (P01116 whole entry): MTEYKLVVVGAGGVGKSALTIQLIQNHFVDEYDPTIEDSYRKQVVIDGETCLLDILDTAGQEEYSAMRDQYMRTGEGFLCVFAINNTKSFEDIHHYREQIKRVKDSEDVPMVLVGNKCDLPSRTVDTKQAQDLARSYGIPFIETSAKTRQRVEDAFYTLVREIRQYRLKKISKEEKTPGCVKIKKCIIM
Experiment: Binding to KRAS by surface plasmon resonance (SPR), Single Cycle Kinetics
Conditions: SPR, Single Cycle Kinetics, GDP-bound KRAS wild-type protein; read-out: KRAS KD
measurement-kind: pKd
One number for each entry, as −log10 of the molar value.

smiles-representation: CC[C@H](C)[C@@H]1NC(=O)[C@H](CC(C)C)N(C)C(=O)C[C@@H](C(=O)N2CCOCC2)N(C)C(=O)[C@H](C2CCCC2)N(C)C(=O)C2(CCC2)NC(=O)[C@@H]2C[C@@H](OC)CN2C(=O)[C@H](CCc2cc(F)c(C(F)(F)F)c(F)c2)NC(=O)CN(C)C(=O)[C@H](Cc2ccc(C(F)(F)F)cc2)N2CCCCC[C@@H](C2=O)N(C)C(=O)CN(C)C1=O
system: GDP-bound KRAS wild-type protein (Homo sapiens)
reported-measurement: 9.57

Please turn your attention to the following entry.
In: Tell me its pKd given CCO[C@@H]1C[C@H]2C(=O)NC3(CC(C)(C)C3)C(=O)N(C)[C@@H](C(CC)CC)C(=O)N(C)[C@H](C(=O)N(C)C)CC(=O)N(C)[C@@H](COC)C(=O)N[C@@H]([C@@H](C)CC)C(=O)N(C)CC(=O)N(C)[C@H]3C/C=C\CCN(C3=O)[C@@H](CC3CCC(F)(F)CC3)C(=O)N(C)CC(=O)N[C@@H](CCc3ccc(C(F)(F)F)c(OC)c3)C(=O)N2C1 as the entry.
Out: 9.19

FYI, the data here is from patent US20240158446A1.
